Values compiled from paper PMC9975039.

- assay_system: AKR1C3 (Homo sapiens)
- Sequence (P42330 whole entry): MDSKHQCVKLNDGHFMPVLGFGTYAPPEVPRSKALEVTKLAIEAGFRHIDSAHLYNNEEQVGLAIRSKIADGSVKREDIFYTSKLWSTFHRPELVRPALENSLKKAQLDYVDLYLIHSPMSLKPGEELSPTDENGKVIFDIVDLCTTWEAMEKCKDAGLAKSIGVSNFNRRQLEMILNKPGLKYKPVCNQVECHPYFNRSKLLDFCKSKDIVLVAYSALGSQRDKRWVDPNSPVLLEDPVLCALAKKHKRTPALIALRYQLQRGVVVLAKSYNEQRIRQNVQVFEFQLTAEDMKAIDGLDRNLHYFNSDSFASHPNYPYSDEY
- test_protocol: S-tetralol oxidation assay, recombinant AKR1C3, absorbance at […] nm
assay_readout: IC50

# input Specify IC50 for NS(=O)(=O)c1ccc(-n2nc(CCCNC(=O)Nc3ccc(C(F)(F)F)cc3)cc2-c2ccccc2)cc1 [PTUPB] and stop.
# output ~65 nM
